ASSAY_TARGET: Human indoleamine 2,3-dioxygenasae (IDO) (Homo sapiens (Human), UniProt P14902)
Sequence (P14902 whole entry): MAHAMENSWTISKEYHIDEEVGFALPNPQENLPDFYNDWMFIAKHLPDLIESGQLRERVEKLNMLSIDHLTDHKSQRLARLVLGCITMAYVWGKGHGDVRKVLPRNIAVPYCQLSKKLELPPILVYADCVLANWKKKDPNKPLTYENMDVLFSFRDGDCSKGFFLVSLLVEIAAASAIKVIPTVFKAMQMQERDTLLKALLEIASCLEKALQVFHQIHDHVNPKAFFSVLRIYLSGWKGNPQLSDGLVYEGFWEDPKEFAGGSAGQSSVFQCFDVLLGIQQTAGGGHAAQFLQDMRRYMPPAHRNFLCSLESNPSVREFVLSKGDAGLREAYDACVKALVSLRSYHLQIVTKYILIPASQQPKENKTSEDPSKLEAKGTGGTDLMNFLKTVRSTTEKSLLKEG
ASSAY_INFO: Human indoleamine 2,3-dioxygenasae (IDO) enzyme assay
Format: biochemical
ASSAY_CONDITIONS: average of five lots; read-out: IC50
ENDPOINT_LABEL: pIC50
# log scale: pIC50 equals minus log10 of the concentration in mol/L

[Q] Which pIC50 value belongs to CN(CCNc1nonc1/C(=N/O)Nc1ccc(F)c(Cl)c1)S(N)(=O)=O ?
[A] 6.88

====

Reported pIC50 values are given for each entry in this list.
ASSAY_TARGET: Human indoleamine 2,3-dioxygenasae (IDO) (Homo sapiens (Human))
ASSAY_INFO: Human indoleamine 2,3-dioxygenasae (IDO) enzyme assay
Assay type: biochemical
ASSAY_CONDITIONS: read-out: IDO IC50
pIC50: −log10 of the molar value.

CN(CCNc1nonc1/C(=N/O)Nc1ccc(F)c(Cl)c1)S(N)(=O)=O [Example 24]; > 6.70

[Q] I have this compound here, CS(=O)(=O)NCCNc1nonc1C(=NO)Nc1ccc(F)c(C(F)(F)F)c1 [Example 10] , and I need its recorded pIC50.
[A] > 7.00

[Q] # query: pIC50 of entry CS(=O)(=O)NCCCNc1nonc1C(=NO)Nc1ccc(F)c(C(F)(F)F)c1 [Example 12]
[A] > 7.00

[Q] If you can, please state the reported pIC50 value of NS(=O)(=O)NCCNc1nonc1C(=NO)NCc1cc(Br)co1 [Example 20] .
[A] > 6.30

[Q] What does the data say about its pIC50? Entry: CS(=O)(=O)NCCCNc1nonc1C(=NO)Nc1ccc(F)c(Cl)c1 [Example 8]
[A] > 6.70

[Q] Which value of pIC50 has been reported for NS(=O)(=O)NCCNc1nonc1C(=NO)Nc1ccc(F)c(Cl)c1 [Example 5] in the records?
[A] > 6.70

[Q] If you can, please state the reported pIC50 value of NS(=O)(=O)NCCNc1nonc1C(=NO)Nc1ccc(F)c(C(F)(F)F)c1 [Example 9] .
[A] > 7.00

[Q] Which pIC50 value belongs to NS(=O)(=O)NCCCNc1nonc1C(=NO)Nc1ccc(F)c(C(F)(F)F)c1 [Example 11] ?
[A] > 7.00

Where these numbers come from: patent US10034939B2
